Molecular target: recombinant human MMP-1 (Homo sapiens, UniProt P03956)
Construct: made in house; host or cells: transfected HT-1080 cells (provided by Dr. Harold Welgus, Washington University)
Sequence (P03956 100-469): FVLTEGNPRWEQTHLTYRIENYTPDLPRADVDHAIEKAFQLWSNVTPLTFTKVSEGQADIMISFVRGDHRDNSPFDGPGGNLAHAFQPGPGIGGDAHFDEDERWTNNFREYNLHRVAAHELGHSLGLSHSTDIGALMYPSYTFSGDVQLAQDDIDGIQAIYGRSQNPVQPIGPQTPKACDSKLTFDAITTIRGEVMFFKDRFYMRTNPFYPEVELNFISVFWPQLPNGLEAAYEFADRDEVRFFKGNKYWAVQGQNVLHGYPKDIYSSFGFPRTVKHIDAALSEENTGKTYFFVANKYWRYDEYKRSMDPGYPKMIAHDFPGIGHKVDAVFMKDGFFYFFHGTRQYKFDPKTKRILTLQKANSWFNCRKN
Assay: biochemical
Conditions: Inhibition Table B; read-out: MMP-1 IC50
Counter-ions that a name gives are not always drawn.
Please respond with reported IC50 for every item in the list.
Dear colleague, please return just the value in µM, with no unit written.

Query block: Lab note: need IC50 with recombinant human MMP-1 (Homo sapiens, UniProt P03956) for entry CCOC(=O)N1CCN(c2ccc(S(=O)(=O)C3(C(=O)NO)CCOCC3)cc2)CC1 [Example 126] , please look it up.
Result block: 8

Query block: State its IC50 on recombinant human MMP-1 (Homo sapiens, UniProt P03956): Nc1ccc(Sc2ccc(S(=O)(=O)C3(C(=O)NO)CCOCC3)cc2)cc1 [Example 120]
Result block: 4

Query block: Provide value of IC50 for this record tested with recombinant human MMP-1 (Homo sapiens, UniProt P03956): NCC(=O)Nc1ccc(Sc2ccc(S(=O)(=O)C3(C(=O)NO)CCSCC3)cc2)cc1 [Example 118]
Result block: 2.85

Query block: Any idea what IC50 came out for CS(=O)(=O)N1CCC(C(=O)NO)(S(=O)(=O)c2ccc(Oc3ccc4c(c3)OCO4)cc2)CC1 [Example 42] on recombinant human MMP-1 (Homo sapiens, UniProt P03956)?
Result block: 2.2

Query block: // map O=C(NO)C1(S(=O)(=O)c2ccc(Oc3ccc(I)cc3)cc2)CCOCC1 [Example 57] to recorded IC50 (system: recombinant human MMP-1 (Homo sapiens, UniProt P03956))
Result block: 1.2

Query block: Missing value: IC50, recombinant human MMP-1 (Homo sapiens, UniProt P03956), entry O=C(NO)C1(S(=O)(=O)c2ccc(-c3ccc(Cl)cc3)cc2)CCNCC1 [Example 91, Monohydrochloride] . Fill in?
Result block: 1.8

Query block: Any idea what IC50 came out for Cc1cc(Oc2ccc(S(=O)(=O)C3(C(=O)NO)CCN(CC(=O)O)CC3)cc2)ccc1Cl [Example 80, Monohydrochloride] on recombinant human MMP-1 (Homo sapiens, UniProt P03956)?
Result block: 3

Query block: Test system recombinant human MMP-1 (Homo sapiens, UniProt P03956); read-out IC50; what value for CC1(C)OCC(C(=O)NO)(S(=O)(=O)c2ccc(Oc3ccccc3)cc2)CO1 [Example 48] ?
Result block: 0.21

Query block: Give IC50 (recombinant human MMP-1 (Homo sapiens, UniProt P03956)) of the following compound: O=C(O)CN1CCC(C(=O)NO)(S(=O)(=O)c2ccc(Oc3ccc(Cl)cc3)cc2)CC1 [Example 88, Monohydrochloride]
Result block: 1.1

Query block: Which measured IC50 belongs to C#CCN1CCC(C(=O)NO)(S(=O)(=O)c2ccc(Oc3ccc(Cl)cc3)cc2)CC1 [Example 85, Monohydrochloride] , tested on recombinant human MMP-1 (Homo sapiens, UniProt P03956)?
Result block: 0.5

Query block: Recall the recorded IC50 for O=C(NO)C1(S(=O)(=O)c2ccc(Oc3ccc(Cl)c(F)c3)cc2)CCOCC1 [Example 122] with recombinant human MMP-1 (Homo sapiens, UniProt P03956) and state it.
Result block: 0.6

Query block: recombinant human MMP-1 (Homo sapiens, UniProt P03956) / IC50 / O=C(NO)C1(S(=O)(=O)c2ccc(-c3ccccc3)cc2)CCOCC1 [Example 213] : value?
Result block: 0.31

Query block: What measured IC50 is associated with O=C(NO)C1(S(=O)(=O)c2ccc(Oc3ccc(F)c(Cl)c3)cc2)CCOCC1 [Example 108] on recombinant human MMP-1 (Homo sapiens, UniProt P03956)?
Result block: 2

Query block: Lab request: please report IC50 under test system recombinant human MMP-1 (Homo sapiens, UniProt P03956) for CCCCNC(=O)C1CCN(c2ccc(S(=O)(=O)C3(C(=O)NO)CCOCC3)cc2)CC1 [Example 181]
Result block: 10

Query block: Hi! What's the reported IC50 for O=C(NO)C1(S(=O)(=O)c2ccc(Oc3ccccc3)cc2)CC[S+]([O-])CC1 (stereo not drawn) [Example 111] on recombinant human MMP-1 (Homo sapiens, UniProt P03956)?
Result block: 3.7

Query block: Which measured IC50 belongs to O=C(NO)C1(S(=O)(=O)c2ccc(Oc3ccc(Cl)cc3)cc2)CCN(CCN2CCOCC2)CC1 [Example 89, Dihydrochloride] , tested on recombinant human MMP-1 (Homo sapiens, UniProt P03956)?
Result block: 1.2

Query block: # get_value(readout= IC50, system= recombinant human MMP-1 (Homo sapiens, UniProt P03956)) for C#CCN1CCC(C(=O)NO)(S(=O)(=O)c2ccc(Oc3ccc(Cl)c(C)c3)cc2)CC1.Cl [Example 81, Monohydrochloride]
Result block: 3.3

Query block: Request body: readout IC50, system recombinant human MMP-1 (Homo sapiens, UniProt P03956), query O=Cc1ccc(-c2ccc(S(=O)(=O)C3(C(=O)NO)CCOCC3)cc2)cc1 [Example 231] . Return the value.
Result block: 0.65

Query block: Field: IC50 (recombinant human MMP-1 (Homo sapiens, UniProt P03956)). Entry: O=C(CN1CCCC1)N1CCC(C(=O)NO)(S(=O)(=O)c2ccc(Oc3ccccc3)cc2)CC1 [Example 31, Monohydrochloride]
Result block: 0.37

Query block: Recall the recorded IC50 for O=C(NO)C1(S(=O)(=O)c2ccc(Oc3ccccc3)cc2)CCSCC1 [Example 109] with recombinant human MMP-1 (Homo sapiens, UniProt P03956) and state it.
Result block: 0.5

Query block: # returns recorded IC50 (system: recombinant human MMP-1 (Homo sapiens, UniProt P03956)) for CC(=O)N1CCN(c2ccc(Oc3ccc(S(=O)(=O)C4(C(=O)NO)CCSCC4)cc3)cc2)CC1 [Example 112]
Result block: 1

Query block: Under recombinant human MMP-1 (Homo sapiens, UniProt P03956): IC50 value of COC(=O)CCc1ccc(Oc2ccc(S(=O)(=O)C3(C(=O)NO)CCOCC3)cc2)cc1 [Example 102] ?
Result block: 2
